- Tested on: KS-1 (Glioblastoma)
- procedureDetails: combination Emax (second highest fraction inhibited in the dose matrix, 72 h); higher = more inhibition; extreme values may be limits of the assay
parameterMeasured: combination Emax

NC1(C(=O)N[C@@H](CCO)c2ccc(Cl)cc2)CCN(c2ncnc3[nH]ccc23)CC1 [Capivasertib] + Cn1cnc2c(F)c(Nc3ccc(Br)cc3Cl)c(C(=O)NOCCO)cc21 [Selumetinib] (first compound max 10 µM, 7x7, partner max 10 µM) | 0.551
NC1(C(=O)N[C@@H](CCO)c2ccc(Cl)cc2)CCN(c2ncnc3[nH]ccc23)CC1 [Capivasertib] + CC(=O)c1c(C)c2cnc(Nc3ccc(N4CCNCC4)cn3)nc2n(C2CCCC2)c1=O [Palbociclib] (first compound max 10 µM, 7x7, partner max 10 µM) | 0.5
Cc1c2c(nn1C)CSCc1cc(n(C)n1)CSc1cc(c3ccccc3c1)OCCCc1c(C(=O)O)n(C)c3c-2c(Cl)ccc13 [AZD5991] + CC(=O)O[C@H]1C(=O)[C@@]2(C)[C@H]([C@H](OC(=O)c3ccccc3)[C@]3(O)C[C@H](OC(=O)[C@H](O)[C@@H](NC(=O)c4ccccc4)c4ccccc4)C(C)=C1C3(C)C)[C@]1(OC(C)=O)CO[C@@H]1C[C@@H]2O [Paclitaxel] (first compound max 1 µM, 7x7, partner max 3 µM) | 0.582
